Measured TGI of individual entries
System: MDA-MB-435
experimentSummary: NCI tumour cell line growth inhibition, 48 h

- compound: "Cc1ccc(S(=O)(=O)N2CCC(C(=O)O)(c3ccccc3)CC2)cc1"
  readoutUnits: "µM"
  signQualifier: ">"
  TGI: 100
- compound: "COc1cc(OC)cc(-c2ccc(-c3ccc(C(=N)N)cn3)s2)c1"
  readoutUnits: "µM"
  signQualifier: "="
  TGI: 3.15
- compound: "Cn1c(=O)c2c(nc(N/N=C3/SCC(=O)N3Cc3ccccc3)n2C)n(C)c1=O"
  readoutUnits: "µM"
  signQualifier: ">"
  TGI: 100
- compound: "Cc1ccc(-n2cc(-c3ccc(Cl)cc3)c3c(=N)n(N)cnc32)cc1"
  readoutUnits: "µM"
  signQualifier: "="
  TGI: 23.1
- compound: "COC(=O)c1ccc2[nH]c(O)c(C(=Nc3ccc(N(C)C(=O)CN4CCN(C)CC4)cc3)c3ccccc3)c2c1"
  readoutUnits: "µM"
  signQualifier: "="
  TGI: 4.02
- compound: "O=c1nc2[nH]c3c(-c4n[nH]c(=O)[nH]c4=O)cccc3c2n[nH]1"
  readoutUnits: "µM"
  signQualifier: ">"
  TGI: 100
- compound: "C[C@]12CCC3=NCCN3C1=CC[C@@H]1[C@@H]2CC[C@@]2(C)[C@H]1CC[C@]2(C)O"
  readoutUnits: "µM"
  signQualifier: ">"
  TGI: 100
- compound: "COc1ccc(C23OCC(Cc4cc(OC)c(OC)cc42)C3CO)cc1OC (stereo not given)"
  readoutUnits: "µM"
  signQualifier: ">"
  TGI: 100
- compound: "O=C1c2ccccc2C(=O)c2sc(Nc3cc(Cl)ccc3Cl)nc21"
  readoutUnits: "µM"
  signQualifier: "="
  TGI: 3.85
- compound: "Oc1ccc(SCc2cc(O)ccc2O)cc1"
  readoutUnits: "µM"
  signQualifier: "="
  TGI: 27.1
